# target or test system: Voltage-gated potassium channel subunit beta-2 (Rattus norvegicus) (UniProt P62483)
# Sequence (P62483 whole entry, looked up): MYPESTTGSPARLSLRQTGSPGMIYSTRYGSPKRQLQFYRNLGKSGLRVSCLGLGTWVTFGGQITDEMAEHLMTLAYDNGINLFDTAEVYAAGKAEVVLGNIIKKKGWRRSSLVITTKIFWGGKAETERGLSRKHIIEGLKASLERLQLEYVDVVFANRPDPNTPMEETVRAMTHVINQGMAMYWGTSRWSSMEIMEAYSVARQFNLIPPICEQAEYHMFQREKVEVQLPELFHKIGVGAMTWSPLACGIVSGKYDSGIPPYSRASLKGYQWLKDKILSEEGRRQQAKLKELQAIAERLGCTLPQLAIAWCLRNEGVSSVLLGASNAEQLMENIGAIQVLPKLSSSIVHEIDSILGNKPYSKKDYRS
# experiment summary: enhancers of rat Kvbeta2 NADPH turnover – biochemical, NADPH fluorescence, primary screen (AID 623);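 further: fluorescence intensity change per second fitted from 20 to 320 s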
# conditions: Recombinant KvBeta, NADPH fluorescence decrease slope, 10 min; at 10 µM; stronger effect = lower value
Entries and their NADPH fluorescence slope values follow.
Form: value (number only, do not type unit).

compound	NADPH fluorescence slope
COc1ccc(CCNC(=O)CSCc2n[nH]c(=O)[nH]2)cc1OC	-3.9e-05
COc1ccc(C(=O)Nc2nncs2)c(OC)c1	3.8e-06
Cc1csc2ncc(C(=O)Nc3ccccc3Cl)c(=O)n12	5.1e-06
CCOc1ccccc1NC(=O)CN(c1ccc(C)cc1)S(=O)(=O)c1c(C)noc1C	-6.6e-05
O=S1(=O)CC(N2CCCCC2)C(N2CCCCC2)C1 (stereo unspecified)	-1.5e-05

Query string: Which NADPH fluorescence slope value belongs to Cc1cc(NC(=O)c2cnn3c(C(F)F)cc(C4CC4)nc23)no1 ?
Result string: -3.5e-05

Query string: Which NADPH fluorescence slope value belongs to O=C(O)CCc1ccc(-c2ccc(Br)cc2)n1CC(=O)O ?
Result string: -5.5e-05

Query string: Which NADPH fluorescence slope value belongs to CCOC(=O)Cn1nnnc1C(C(C)C)N(Cc1cc2c(C)cc(C)cc2[nH]c1=O)C1CCCC1 (stereo unspecified) ?
Result string: 1.1e-05

Query string: Which NADPH fluorescence slope value belongs to O=C1CCc2cc(S(=O)(=O)N3CCC(C(=O)NCc4ccccn4)CC3)ccc2N1 ?
Result string: 1.3e-05

Query string: Which NADPH fluorescence slope value belongs to CC(C)Oc1cc2oc(=O)c3c(c2cc1Cl)CCC3 ?
Result string: 2.2e-05

Query string: Which NADPH fluorescence slope value belongs to CC(C)(O)C#Cc1ccc(C(=O)N2CCN(C(=O)c3ccco3)CC2)cc1 ?
Result string: -3.3e-05

###

Entries and their inhibition values follow.
# experiment summary: blockers of RIG-like receptor reporter activation – cell-based, Sendai virus stimulus, luciferase, 10K MLSCN set, TLR/RLR signaling modifier project, primary screen (AID 602276);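 further: firefly luciferase from ISG56 promoter only with Renilla not read in this screen; 0% = Sendai virus plus DMSO and 100% = medium plus DMSO without virus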
# conditions: HEK293 RL24 IRF3 luciferase reporter, at 10 µM, stronger effect = higher value
The source made the active and inactive calls.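 Rule for the calls: active = inhibition at or above 50% at 10 µM; inactive = inhibition below 50%.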

Solved cases (5 shown):
compound	inhibition
Cc1ccc(C(=O)Nc2ccc(Cl)cn2)cc1S(=O)(=O)N1CCOCC1	-6.64% (inactive)
O=C(c1cnn2c(C(F)(F)F)cc(-c3ccco3)nc12)N1CCc2ccccc2C1	-19% (inactive)
Cc1cc(N2CCC3(CC2)OCCO3)n2nc(C)c(-c3ccc(Cl)cc3)c2n1	12.3% (inactive)
CSc1c(C#N)c(N)c(C#N)c2c1COC(C)(C)C2	17.3% (inactive)
COc1ccccc1OCCCn1c(=O)oc2ccccc21	-13.6% (inactive)

Query string: Which inhibition value belongs to Cc1ccc(S(=O)(=O)N2CCCC2C(=O)OCc2nc3ccccc3s2)cc1 (stereo not drawn) ?
Result string: 8.31% (inactive)

Query string: Which inhibition value belongs to CCc1c(C)nc2ncnn2c1NCCc1ccc(OC)c(OC)c1 ?
Result string: 8.69% (inactive)

###

# experiment summary: endothelial E-selectin expression blockers – imaging, HUVEC, immunofluorescence, MLSMR starter and 10KST1 sets, primary screen (AID 487);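 further: 100% = median nuclei count of all wells on the same plate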
# conditions: HUVEC TNFalpha-induced E-selectin immunofluorescence imaging, at 2 µM; measured here: cell number, toxicity
recorded metric: nuclei count (%)
Give the value in % but do not write % after it.

compound	recorded metric	result
Cc1ccc2oc(=O)c3cnn(CC(=O)NCCC(C)C)c3c2c1	nuclei count	104
COc1ccccc1N(CN1CCCC1=O)C(=O)c1c(F)cccc1Cl	nuclei count	91.8
COc1ccc(N2CCN(Cc3nc4c(c(=O)n(C)c(=O)n4C)n3Cc3ccccc3C)CC2)cc1	nuclei count	129
CN(C)c1ccc(NC(=O)c2ccncc2)c2ccccc12	nuclei count	105

Query string: Which nuclei count value belongs to CCOC(=O)C1CCN(C(=O)COc2ccc(Cl)cc2Cl)CC1 ?
Result string: 104

Query string: Which nuclei count value belongs to O=C(NC(C(=O)c1ccccc1)N1CCOCC1)c1cccs1 (stereo unspecified) ?
Result string: 101

Query string: Which nuclei count value belongs to COc1cc2c3c(c1)/C(=C1/SC(NC(C)=O)=NC1=O)C(=O)N3C(C)(C)C=C2C ?
Result string: 91

Query string: Which nuclei count value belongs to CCOC(=O)Cn1nc(-c2ccc(C)cc2)ccc1=O ?
Result string: 108

Query string: Which nuclei count value belongs to CC1(C)CC(=O)C=C(Nc2ccc(OCC(F)(F)C(F)F)cc2)C1 ?
Result string: 116

Query string: Which nuclei count value belongs to CC(=O)c1c(C)nn(C(C)CC(=O)O)c1C (stereo unspecified) ?
Result string: 99

Query string: Which nuclei count value belongs to Cc1nn(-c2ccccc2)c2sc(C(=O)N3CCOCC3)cc12 ?
Result string: 118
